# System: rodent lifetime carcinogenesis bioassay, tumor incidence TD50
# test.description: carcinogenic potency in animals, long-term in vivo studies, CPDB compilation (AID 1745844)
# applied.conditions: mouse; strain CDF1; females; in feed; site: liver; lesion: hepatocellular carcinoma; dosed 82 weeks; study length 82 weeks
measure.name: TD50 (mg/kg/day)
Only the number, expressed in mg/kg/day, is required.

Name the recorded TD50 for `Nc1ccc2nc3ccccn3c2n1` .
20

----------
# Test system: rodent lifetime carcinogenesis bioassay, tumor incidence TD50
# test.description: carcinogenic potency in animals, long-term in vivo studies, CPDB compilation (AID 1745844)
# applied.conditions: mouse; strain B6C3F1; females; in feed; site: urinary bladder; lesion: leiomyosarcoma; dosed 96 weeks; study length 96 weeks
measure.name: TD50 (mg/kg/day)
Only the number, expressed in mg/kg/day, is required.

Name the recorded TD50 for `O=c1cc[nH]c(=O)[nH]1` .
56700
